Hey, just so you know, these numbers are from patent US11234979B2.

# protocol-text: Rodent pharmacokinetic study
# Assay type: in vivo, Male Wistar rats
# setup-conditions: male, Wistar; rat, oral 3 mg/kg, plasma
assay-endpoint: Cmax (ng/mL)
Please reply with the bare figure in ng/mL and do not write the unit itself.

Reference set (2 entries):
Entry Cn1cc(-c2ccc(Cc3cc(C(=O)N[C@H]4CCCC[C@@H]4O)n4ncccc34)cc2F)cn1 — recorded Cmax = 414

Entry O=C(N[C@H]1CCCC[C@@H]1O)c1cc(Cc2ccc(-n3cccn3)cc2)c2cccnn12 — recorded Cmax = 687

Please turn your attention to the following entry.
Entry O=C(N[C@H]1CCCC[C@@H]1O)c1cc(Cc2ccc(Br)c(F)c2)c2cccnn12 — recorded Cmax = 132
